System: IL-1β production from human peripheral blood mononuclear cells (PBMC)
test name: IL-1β production from human PBMC, Cytometric Bead Array
Assay type: cell-based
test settings: LPS 0.6 ng/ml; test compound 1 μg/ml; Table 18
Where no end group is shown, it is not given here.
In this section, each of the substances is paired with its reported IL-1β % of control.
Numeric answer only, unit % assumed.

>  <substance>
rhBD2: recombinant hBD2, which is identical to hBD2 as used in Example 1 (GIGDPVTCLKSGAICHPVFCPRRYKQIGTCGLPGTKCCKKP; not fully specified; ends and bridges not checked; UniProt O15263 24-64, looked up)

>  <IL-1β % of control [%]>
38

$$$$

In: Form entry - test system: IL-1β production from human peripheral blood mononuclear cells (PBMC); read-out: IL-1β % of control; substance: hBD4 variant: consists of amino acids 3-39 of hBD4, SEQ ID NO:5; prepared using chemical synthesis (ELDRICGYGTARCRKKCRSQEYRIGRCPNTYACCLRK; hBD-4 variant consisting of amino acids 3-39 of SEQ ID NO4)
Out: 39

In: So what IL-1β % of control did hBD3: human beta defensin 3, SEQ ID NO:3; prepared using chemical synthesis, Peptide Institute Inc. (GIINTLQKYYCRVRGGRCAVLSCLPKEEQTGKCSTRGRKCCRRKK; ends and bridges not checked; cysteine pairing not given here; listed as Homo sapiens) get with IL-1β production from human peripheral blood mononuclear cells (PBMC)?
Out: 45

In: Please state recorded IL-1β % of control (tested on IL-1β production from human peripheral blood mononuclear cells (PBMC)) of hBD1: human beta defensin 1, SEQ ID NO:1; prepared using chemical synthesis, Peptide Institute Inc. (DHYNCVSSGGQCLYSACPIFTKIQGTCYRGKAKCCK; ends and bridges not checked; cysteine pairing not given here; listed as Homo sapiens)
Out: 69
